Each record here notes measured cell transfection efficiency, times that of YK-009.
Tested on: 293T cells
Experiment: Fluorescent detection of Fluc-mRNA (cell transfection efficiency of LNP formulations)
Type: cell-based
Details: comparator YK-009
Give the quantity in times, number only.

smiles_code=CCCCCCCCC(CCCCCCCC)COC(=O)CCCCCN(CCCCCC(=O)OCC(CCCCCCCC)CCCCCCCC)C[C@H](O)CN(CC)CCO number=3.94
smiles_code=CCCCCCCCC(CCCCCCCC)OC(=O)CCCCCN(CCCCCC(=O)OC(CCCCCCCC)CCCCCCCC)C[C@H](O)CN(CCO)CCO number=2.19

QUERY: // query cell transfection efficiency, times that of YK-009 value for entry CCCCCCCCC(CCCCCCCC)COC(=O)CCCCCN(CCCCCC(=O)OCC(CCCCCCCC)CCCCCCCC)C[C@H](O)CN(C)CCO
RESULT: 5.35

QUERY: What value of cell transfection efficiency, times that of YK-009 has been reported for the following compound? CCCCCCCCCCCOC(=O)CCCCCN(CCCC(=O)OCCCC(CCCCCCCCCC)CCCCCCCCCC)C[C@H](O)CN(CC)CCO
RESULT: 5.04

QUERY: Entry CCCCCCC(CCCCCC)CCOC(=O)CCCCCCN(CCCCCCC(=O)OCCC(CCCCCC)CCCCCC)C[C@H](O)CN(CCO)CCO : reported cell transfection efficiency, times that of YK-009 = ?
RESULT: 4.78

====

Measured cell survival rate higher than YK-307, listed per entry for reference.
Test system: 293T cells
Experiment: Cell survival rate determination (CCK-8)
Format: cell-based
Details: difference of survival rates; comparator YK-307
Please state the figure in %; there is no need to write the unit.

For orientation, consider the following solved cases.
compound="CCCCCCCCCCCOC(=O)CCCCCN(CCCC(=O)OCCCC(CCCCCCCCCC)CCCCCCCCCC)C[C@H](O)CN(CC)CCO [YK-310]" number=20.96
compound="CCCCCCC(CCCCCC)CCOC(=O)CCCCCCN(CCCCCCC(=O)OCCC(CCCCCC)CCCCCC)C[C@H](O)CN(CCO)CCO [YK-319]" number=14.07
compound="CCCCCCCCC(CCCCCCCC)COC(=O)CCCCCN(CCCCCC(=O)OCC(CCCCCCCC)CCCCCCCC)C[C@H](O)CN(C)CCO [YK-305]" number=21.04

QUERY: Given the compound CCCCCCCCC(CCCCCCCC)OC(=O)CCCCCN(CCCCCC(=O)OC(CCCCCCCC)CCCCCCCC)C[C@H](O)CN(CCO)CCO [YK-318] , what is its reported cell survival rate higher than YK-307?
RESULT: 14.42

QUERY: Look up cell survival rate higher than YK-307 for this compound: CCCCCCCCC(CCCCCCCC)COC(=O)CCCCCN(CCCCCC(=O)OCC(CCCCCCCC)CCCCCCCC)C[C@H](O)CN(CC)CCO [YK-312]
RESULT: 15.82

====

Overview of recorded Particle size (nm) for various molecules
Assay: Particle size and polydispersity index (PDI) of lipid nanoparticles by dynamic light scattering
Format: physicochemical
Details: LNP formulation prepared from the cationic lipid, 25° C.
Use nm as the unit, but write only the number.

The cases that follow already have their Particle size (nm) on record.
molecule="CCCCCCC(CCCCCC)CCOC(=O)CCCCCCCN(CCO)CCCCCCCC(=O)OCCC(CCCCCC)CCCCCC [Compound 23, reference compound]" endpoint="Particle size (nm)" number=147
molecule=CCCCCCCCC(CCCCCCCC)OC(=O)CCCCCN(CCCCCC(=O)OC(CCCCCCCC)CCCCCCCC)C[C@H](O)CN(CC)CCO endpoint="Particle size (nm)" number=241
molecule=CCCCCCCCC(CCCCCCCC)COC(=O)CCCCCN(CCCCCC(=O)OCC(CCCCCCCC)CCCCCCCC)C[C@H](O)CN(CC)CCO endpoint="Particle size (nm)" number=184
molecule=CCCCCCCCCCOC(=O)CCCN(CCCCCC(=O)OCCC(CCCCCC)CCCCCC)C[C@H](O)CN(CC)CCO endpoint="Particle size (nm)" number=232
molecule=CCCCCCCCCCC(CCCCCCCCCC)CCCOC(=O)CCCN(CCCC(=O)OCCCC(CCCCCCCCCC)CCCCCCCCCC)C[C@H](O)CN(CC)CCO endpoint="Particle size (nm)" number=181

QUERY: Entry CCCCCCCCC(CCCCCCCC)OC(=O)CCCCCCCN(CCCCCCCC(=O)OC(CCCCCCCC)CCCCCCCC)C[C@H](O)CN(CC)CCO : reported Particle size (nm) = ?
RESULT: 235

QUERY: Look up Particle size (nm): CCCCCCCCCCCOC(=O)CCCCCN(CCCCCC(=O)OCCCCCCCCCCC)C[C@H](O)CN(C)CCO
RESULT: 149

QUERY: Please report the recorded Particle size (nm) for CCCCCCC(CCCCCC)CCOC(=O)CCCCCN(CCCCCC(=O)OCCC(CCCCCC)CCCCCC)C[C@H](O)CN(CC)CCO .
RESULT: 209

QUERY: Recorded Particle size (nm) of CCCCCCCCC(CCCCCC)C(=O)OCCCCCCN(CCCCO)CCCCCCOC(=O)C(CCCCCC)CCCCCCCC (centres unmarked) [ALC-0315, reference compound] , please.
RESULT: 231

QUERY: # Particle size (nm) lookup, item CCCCCCCCCCCOC(=O)CCCCCN(CCCC(=O)OCCCC(CCCCCCCCCC)CCCCCCCCCC)C[C@H](O)CN(CC)CCO
RESULT: 192

QUERY: Could you tell me which Particle size (nm) is on file for CCCCCCCCC(CCCCCCCC)COC(=O)CCCCCN(CCCCCC(=O)OCC(CCCCCCCC)CCCCCCCC)C[C@H](O)CN(CCO)CCO ?
RESULT: 188

QUERY: # input molecule: CCCCCCCCC(CCCCCCCC)OC(=O)CCCCCCCN(CCCCCCCC(=O)OC(CCCCCCCC)CCCCCCCC)C[C@H](O)CN(CCO)CCO ; wanted: its Particle size (nm)
RESULT: 212

QUERY: // Particle size (nm) lookup, key: CCCCCCCCCCOC(=O)CCCN(CCCCCC(=O)OCC(CCCCCCCC)CCCCCCCC)C[C@H](O)CN(CC)CCO
RESULT: 211

QUERY: # input molecule: CCCCCCCCCCOC(=O)CCCN(CCCCCC(=O)OCCC(CCCCCC)CCCCCC)C[C@H](O)CN(C)CCO ; wanted: its Particle size (nm)
RESULT: 186

====

Tested on: 293T cells
Experiment: Cell survival rate determination (CCK-8)
Type: cell-based
Conditions: difference of survival rates; comparator YK-304
endpoint: cell survival rate higher than YK-304 (%)
Please respond with the number in % and leave the unit unwritten.

Consider the following illustrative entries.
smiles_code=CCCCCCC(CCCCCC)CCOC(=O)CCCCCCN(CCCCCCC(=O)OCCC(CCCCCC)CCCCCC)C[C@H](O)CN(CCO)CCO study_target="293T cells" endpoint="cell survival rate higher than YK-304" number=41.05
smiles_code=CCCCCCCCC(CCCCCCCC)OC(=O)CCCCCN(CCCCCC(=O)OC(CCCCCCCC)CCCCCCCC)C[C@H](O)CN(CCO)CCO study_target="293T cells" endpoint="cell survival rate higher than YK-304" number=41.40
smiles_code=CCCCCCCCC(CCCCCCCC)COC(=O)CCCCCN(CCCCCC(=O)OCC(CCCCCCCC)CCCCCCCC)C[C@H](O)CN(C)CCO study_target="293T cells" endpoint="cell survival rate higher than YK-304" number=48.02
smiles_code=CCCCCCCCCCCOC(=O)CCCCCN(CCCC(=O)OCCCC(CCCCCCCCCC)CCCCCCCCCC)C[C@H](O)CN(CC)CCO study_target="293T cells" endpoint="cell survival rate higher than YK-304" number=47.94

Alright, here's another compound for you.
QUERY: Notebook entry, 293T cells assay: cell survival rate higher than YK-304 of CCCCCCCCC(CCCCCCCC)COC(=O)CCCCCN(CCCCCC(=O)OCC(CCCCCCCC)CCCCCCCC)C[C@H](O)CN(CC)CCO = ?
RESULT: 42.80

====

Test system: 293T cells
Assay: Fluorescent detection of Fluc-mRNA (cell transfection efficiency of LNP formulations)
Format: cell-based
Settings: comparator YK-307
endpoint: cell transfection efficiency, times that of YK-307 (times)
Answer format: numeric, times implied, no suffix.

Example entries and their recorded answers appear below.
smiles_code=CCCCCCCCC(CCCCCCCC)OC(=O)CCCCCN(CCCCCC(=O)OC(CCCCCCCC)CCCCCCCC)C[C@H](O)CN(CCO)CCO study_target="293T cells" number=2.46
smiles_code=CCCCCCCCCCCOC(=O)CCCCCN(CCCC(=O)OCCCC(CCCCCCCCCC)CCCCCCCCCC)C[C@H](O)CN(CC)CCO study_target="293T cells" number=5.66
smiles_code=CCCCCCCCC(CCCCCCCC)COC(=O)CCCCCN(CCCCCC(=O)OCC(CCCCCCCC)CCCCCCCC)C[C@H](O)CN(C)CCO study_target="293T cells" number=6.01
smiles_code=CCCCCCCCC(CCCCCCCC)COC(=O)CCCCCN(CCCCCC(=O)OCC(CCCCCCCC)CCCCCCCC)C[C@H](O)CN(CC)CCO study_target="293T cells" number=4.42

Lab note: next compound to report on.
QUERY: Value lookup for cell transfection efficiency, times that of YK-307; key = CCCCCCC(CCCCCC)CCOC(=O)CCCCCCN(CCCCCCC(=O)OCCC(CCCCCC)CCCCCC)C[C@H](O)CN(CCO)CCO
RESULT: 5.37
